Molecular target: Metabotropic glutamate receptor 3 (Rattus norvegicus)
Sequence (P31422 whole entry): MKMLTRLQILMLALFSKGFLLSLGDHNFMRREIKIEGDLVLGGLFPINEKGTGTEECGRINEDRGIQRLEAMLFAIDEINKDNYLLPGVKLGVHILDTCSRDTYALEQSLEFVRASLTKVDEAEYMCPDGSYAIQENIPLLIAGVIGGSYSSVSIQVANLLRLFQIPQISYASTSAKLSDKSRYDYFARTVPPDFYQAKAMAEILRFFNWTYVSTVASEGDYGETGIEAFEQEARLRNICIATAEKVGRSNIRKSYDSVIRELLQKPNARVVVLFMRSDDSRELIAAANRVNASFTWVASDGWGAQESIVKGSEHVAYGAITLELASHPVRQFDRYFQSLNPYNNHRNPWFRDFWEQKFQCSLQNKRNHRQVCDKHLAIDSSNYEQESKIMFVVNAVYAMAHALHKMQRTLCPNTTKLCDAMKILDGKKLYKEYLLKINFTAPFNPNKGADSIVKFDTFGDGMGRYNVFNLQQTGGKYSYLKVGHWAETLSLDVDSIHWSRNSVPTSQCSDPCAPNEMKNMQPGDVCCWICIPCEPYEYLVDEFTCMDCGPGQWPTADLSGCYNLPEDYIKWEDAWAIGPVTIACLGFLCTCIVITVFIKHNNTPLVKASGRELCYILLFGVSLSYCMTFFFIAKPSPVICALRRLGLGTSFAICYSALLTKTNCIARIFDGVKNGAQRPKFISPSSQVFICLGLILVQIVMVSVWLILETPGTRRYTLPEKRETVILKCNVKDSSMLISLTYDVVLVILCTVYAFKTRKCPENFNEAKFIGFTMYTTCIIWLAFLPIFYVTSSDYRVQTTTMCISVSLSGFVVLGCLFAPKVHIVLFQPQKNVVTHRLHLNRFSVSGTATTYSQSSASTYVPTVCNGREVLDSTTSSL
Assay Readout: Ki (nM)
Lab book: enter the figure in nM, no units written.

Check out these entries, answers already filled in.
NC(Cn1cnc2c(=O)[nH]c(=O)[nH]c21)(C(=O)O)C1CC1C(=O)O (stereo unspecified) [CAS_5311260]    0.8
N[C@@]1(C(=O)O)CO[C@H]2[C@H](C(=O)O)[C@H]21 [LY379268]    6.5

API: the following record is the query input.
Tested system Metabotropic glutamate receptor 3 (Rattus norvegicus); Ki recorded for N[C@@]1(C(=O)O)CN[C@@H](C(=O)O)C1 [2R, 4R-APDC] was 2730

====

The next entries give measured Ki for Metabotropic glutamate receptor 3 (Rattus norvegicus, UniProt P31422).

Observe how each entry below is paired with its result.
C[C@@](N)(C(=O)O)c1ccc(C(=O)O)cc1 (racemic)    > 10 µM
N[C@@H](CCP(=O)(O)O)C(=O)O    > 10 µM

Entry N[C@@H](Cn1oc(=O)[nH]c1=O)C(=O)O , Metabotropic glutamate receptor 3 (Rattus norvegicus, UniProt P31422) data, Ki value: > 10 µM
